Each recorded value in this set is attributed to paper PMC10397247.

Target: T1, Q3-AA
T1 chain: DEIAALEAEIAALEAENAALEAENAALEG
Assay: two-hybrid library CCmax;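 also: natural log of median RNA to DNA barcode read ratio; higher means stronger binding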
Settings: mean of both orientations
As shown below, each of these binders has a reported interaction score value.
Answer with the value's number alone.

Completed entries (count: 4):
{"Binder": "DENAALEAKIAALKAEIAALEAKNAALKG [4H1352-AA]", "interaction score": -0.583}
{"Binder": "DKIAALKAKIAALKAKNAALKAKNAALKG [4H2944-AA]", "interaction score": 1.67}
{"Binder": "DKNAALKAEIAALEAKIAALKAENAALEG [4H3627-AA]", "interaction score": -1.24}
{"Binder": "DENAALEAKNAALKAKIAALKAEIAALEG [4H1513-AA]", "interaction score": -1.16}

Next item in the queue.
stdin: Which measured interaction score value corresponds to DKNAALKAENAALEAEIAALEAKIAALKG [4H3718-AA] ?
stdout: -1.46
